Assay: Agonist activity at rat AMPA receptor assessed as AMPA-induced calcium uptake
Type: functional
pEC50: −log10 of the molar value.
MEASURED PARAMETER: pEC50

test_smiles=COc1ccc(C(=O)N2CCCC2=O)cc1 result="< 4.00"

* * *

Biological target: Glutamate receptor 2 (Homo sapiens)
Sequence (P42262 whole entry): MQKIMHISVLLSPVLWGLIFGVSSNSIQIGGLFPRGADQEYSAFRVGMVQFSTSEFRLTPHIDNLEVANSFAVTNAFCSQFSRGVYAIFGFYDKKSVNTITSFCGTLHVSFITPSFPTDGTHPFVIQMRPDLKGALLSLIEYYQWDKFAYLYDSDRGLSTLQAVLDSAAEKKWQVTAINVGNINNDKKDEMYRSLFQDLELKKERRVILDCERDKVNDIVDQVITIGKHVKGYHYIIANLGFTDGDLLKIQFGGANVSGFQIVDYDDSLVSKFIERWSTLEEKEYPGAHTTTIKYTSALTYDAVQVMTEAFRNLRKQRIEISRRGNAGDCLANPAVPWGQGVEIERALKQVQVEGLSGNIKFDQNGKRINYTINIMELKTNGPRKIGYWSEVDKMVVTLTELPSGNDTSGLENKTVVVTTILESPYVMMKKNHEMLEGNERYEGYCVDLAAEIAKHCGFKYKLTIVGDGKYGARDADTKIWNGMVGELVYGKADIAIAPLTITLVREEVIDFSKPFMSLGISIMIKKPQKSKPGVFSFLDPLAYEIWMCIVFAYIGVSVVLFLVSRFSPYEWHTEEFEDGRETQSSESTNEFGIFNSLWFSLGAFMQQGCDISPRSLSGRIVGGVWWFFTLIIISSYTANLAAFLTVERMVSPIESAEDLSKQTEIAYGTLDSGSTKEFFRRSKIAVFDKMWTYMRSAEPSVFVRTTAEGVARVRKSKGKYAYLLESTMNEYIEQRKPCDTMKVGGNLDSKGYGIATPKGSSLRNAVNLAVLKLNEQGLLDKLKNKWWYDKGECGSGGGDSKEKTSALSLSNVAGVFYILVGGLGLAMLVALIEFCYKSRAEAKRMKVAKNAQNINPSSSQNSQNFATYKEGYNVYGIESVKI
Test: Inhibition of GluR2 flop expressed in HEK cells
Format: cell-based, HEK293
Catalogue of molecules with associated EC50
MEASURED PARAMETER: EC50 (µM)

molecule="CC(CNS(=O)(=O)C(C)C)c1ccc(-c2ccc(C#N)cc2)cc1 (configuration not stated)" numeric_value=1.44
molecule=C[C@@H](CNS(C)(=O)=O)c1ccccc1 numeric_value=1980
